Entry source: patent US20250375418A1

Assay: Plasma pharmacokinetics of CTN HCl formulation, 164.4 mg or 328.8 mg, First Day and Fifth Day (Table 12)
Type: in vivo, human
Conditions: human, plasma, oral, 164.4 mg, Fifth Day, n = 8, median; read-out: tmax
Experimental: The plasma pharmacokinetics from a CTN HCl formulation having a dose of 164.4 mg or 328.8 mg can be as in Table 12.
Structures can show the parent of a compound that is named as a salt.
metric_name: Tmax (h)

| molecule | experimental_value |
| --- | --- |
| c1ccc2cc([C@]34CNC[C@H]3C4)ccc2c1 [Centanafadine HCl] | 5.5 |

* * *

experiment: Plasma pharmacokinetics of CTN HCl formulation, 164.4 mg or 328.8 mg, First Day and Fifth Day (Table 12); format: in vivo, human; conditions: human, plasma, 328.8 mg, Fifth Day, n = 8, mean; read-out: AUC0-24 h
Where a name gives a salt, the structure may show the parent alone.

| molecule | AUC(0-t) (ng·h/mL) |
| --- | --- |
| c1ccc2cc([C@]34CNC[C@H]3C4)ccc2c1 [Centanafadine HCl] | 18400 |

* * *

test: Plasma pharmacokinetics of CTN HCl formulation, 164.4 mg or 328.8 mg, First Day and Fifth Day (Table 12); type: in vivo, human; conditions: human, plasma, oral, 328.8 mg, Fifth Day, n = 8, mean; read-out: C16 hr
Counter-ions that a name gives are not always drawn.

| compound | units_text | concentration at 16 h |
| --- | --- | --- |
| c1ccc2cc([C@]34CNC[C@H]3C4)ccc2c1 [Centanafadine HCl] | ng/mL | 211 |

* * *

experiment: Plasma pharmacokinetics of a CTN HCl formulation, 164.4 mg dose (Table 11); format: in vivo, human; conditions: human, oral, read-out: Cmax
Where a name gives a salt, the structure may show the parent alone.

| molecule | Cmax |
| --- | --- |
| c1ccc2cc([C@]34CNC[C@H]3C4)ccc2c1 [Centanafadine HCl] | 500 to 700 ng/mL |

* * *

test: Plasma pharmacokinetics of a CTN HCl formulation, 164.4 mg dose (Table 11); format: in vivo, human; settings: human, oral, n = 11, read-out: AUC0-inf
Counter-ions that a name gives are not always drawn.
metric_name: AUC(0-inf)

| compound | experimental_value |
| --- | --- |
| c1ccc2cc([C@]34CNC[C@H]3C4)ccc2c1 [Centanafadine HCl] | 5000 to 8000 ng·h/mL |

* * *

assay: Plasma pharmacokinetics of CTN HCl formulation, 164.4 mg or 328.8 mg, First Day and Fifth Day (Table 12); format: in vivo, human; settings: human, plasma, oral, 164.4 mg, First Day, n = 8, mean; read-out: C1 hr
Structures can show the parent of a compound that is named as a salt.

| compound | concentration at 1 h, µg/mL |
| --- | --- |
| c1ccc2cc([C@]34CNC[C@H]3C4)ccc2c1 [Centanafadine HCl] | 0.358 |
